These data points were gathered from ChEMBL document CHEMBL5725765.

Endpoint: IC50. System: Lysine-specific histone demethylase 1A (Homo sapiens, UniProt O60341). Items follow.

>  <smiles>
Cn1c(N2CCC(N)CC2)nc(-c2ccc(C#N)c(F)c2)c(-c2ccc3c(ccn3C)c2)c1=O

>  <IC50>
< 100 nM

$$$$

Query block: API: value(readout=IC50, system=Lysine-specific histone demethylase 1A (Homo sapiens, UniProt O60341)) for record Cn1c(N2CCC(N)CC2)nc(-c2ccc(C#N)c(F)c2)c(-c2ccc3cc[nH]c3c2)c1=O
Result block: < 100 nM

Query block: Thanks! And Cn1c(N2CCC(N)CC2)nc(-c2ccc(O)cc2)c(-c2ccc3c(ccn3C)c2)c1=O ?
Result block: > 10000 nM
